These data points were gathered from PubChem BioAssay (NCI).

system: NCI/ADR-RES ovarian; test: NCI-60 one-dose screen, 48 h (100 = growth as untreated, 0 = no growth, -100 = all killed); conditions: 10 µM unless noted
About 83,000 compounds went through this panel and 20% of them were active in at least one assay; those are over-represented in the sample as a whole.
What growth was measured for each of the following?
Give bare numbers, in %.

These recorded examples may help you get a feel for the data.
| compound | display_unit | growth |
| --- | --- | --- |
| COc1cc2c3c(n(CCCNC4CCC4)c(=O)c2cc1OC)-c1cc2c(cc1C3=O)OCO2 | % | -32.4 |
| O=C(CCCCCCN1CC(=O)N2[C@@H](c3cc(F)cc(F)c3)c3[nH]c4ccccc4c3C[C@H]2C1=O)NO | % | 91.5 |
| Cc1cn(-c2cc(NC(=O)c3cncc(C#Cc4cnc5ccc(O[C@H]6CCOC6)nn45)c3)cc(C(F)(F)F)c2)cn1 | % | 101 |
| COc1cc(CNC(=O)/C=C/c2ccccc2)ccc1OCC(=O)NO | % | 96.1 |

Now consider a different compound.
The measured growth associated with O=S(=O)(NC1CC2CCC1C2)c1ccc2c(c1)C(=NO)c1cc(S(=O)(=O)NC3CC4CCC3C4)ccc1-2 (stereo not given) reads 63.7
